Tested on: HepG2 cells
Assay: Cytotoxicity evaluation (CellTiter 96 MTS)
Format: cell-based, human
Conditions: Homo sapiens, HepG2; 24 h, cytotoxicity; read-out: IC50 HepG2
Protocol: Seven esters and their parent salicylanilides with the most robust antimicrobial activity were tested for cytotoxicity in the human hepatocellular liver carcinoma cell line HepG2 (passages 21–24; ECACC, Salisbury, UK) using a standard colorimetric method measuring a tetrazolium salt reduction (CellTiter(R) 96 AQueous One Solution Assay, Promega G3580, Madison, WI, USA). […]
assay_readout: IC50 (nM)
State just the number; it will be interpreted in nM.

Example molecules with recorded IC50:
* O=C(O)c1ccc(C(F)(F)F)cc1 [CF3-BA, 4-(trifluoromethyl)benzoic acid, reference compound] | 564000
* O=C(Oc1cc(Cl)ccc1C(=O)Nc1ccc(C(F)(F)F)cc1)c1ccc(C(F)(F)F)cc1 | 1770

Note: attention shifts to another entry.
# input Which IC50 value belongs to O=C(Nc1ccc(C(F)(F)F)cc1)c1cc(Cl)ccc1O ?
# output 360
